meta.source: paper PMC7870626

Item-by-item account of EC25
test system: LUHMES cells; assay: NeuriTox test: neurite area and viability, 24 h; type: cell-based, human; conditions: Homo sapiens; NeuriTox exposure scheme, 24 h; read-out: LUHMES 24 h EC25 NA (neurite area) (converted)
measured endpoint: EC25 (µM)

> print(dat)
                                   compound  measurement.target  readout.relation  readout.value
1  Cc1nn(C)c(Oc2ccccc2)c1C=NOCc1ccc(C(=O)OC(C)(C)C)cc1 [Fenpyroximate]        LUHMES cells                 =           15.8
2                CC1=C(C(=O)Nc2ccccc2)SCCO1        LUHMES cells                 =           79.4
3  COc1cc2c(cc1OC)[C@@H]1C(=O)c3ccc4c(c3O[C@@H]1CO2)C=CC(C)(C)O4        LUHMES cells                 =           3.98
4  CSC1=N[C@@](C)(c2ccccc2)C(=O)N1Nc1ccccc1        LUHMES cells                 >           50.1
5       CO/N=C(/C(=O)OC)c1ccccc1COc1ccccc1C        LUHMES cells                 =           50.1
6  CC(C)(C)c1ccc(CSc2cnn(C(C)(C)C)c(=O)c2Cl)cc1        LUHMES cells                 =           63.1
7    CC(C)Oc1cccc(NC(=O)c2ccccc2C(F)(F)F)c1        LUHMES cells                 =           79.4
8  Cc1nc(C(F)(F)F)c(C(=O)Nc2c(Br)cc(OC(F)(F)F)cc2Br)s1 [Thifluzamide]        LUHMES cells                 =             20

====

test system: LUHMES cells; assay: NeuriTox test: neurite area and viability, 24 h; format: cell-based, human; conditions: Homo sapiens; NeuriTox exposure scheme, 24 h; read-out: LUHMES 24 h EC25 V (viability) (converted)
measured endpoint: EC25 (µM)

> print(dat)
                                   compound  unit.info  readout.relation  readout.value
1                CC1=C(C(=O)Nc2ccccc2)SCCO1         µM                 >            100
2  CCc1nn(C)c(C(=O)NCc2ccc(C(C)(C)C)cc2)c1Cl         µM                 =             20
3  CSC1=N[C@@](C)(c2ccccc2)C(=O)N1Nc1ccccc1         µM                 >           50.1
4  COC(=O)N(OC)c1ccccc1COc1ccn(-c2ccc(Cl)cc2)n1         µM                 >           50.1
5        COc1cc(CNC(=O)CCCC/C=C/C(C)C)ccc1O         µM                 >           50.1
6  COc1cc2c(cc1OC)[C@@H]1C(=O)c3ccc4c(c3O[C@@H]1CO2)C=CC(C)(C)O4         µM                 =           50.1
7  Cc1nn(C)c(Oc2ccccc2)c1C=NOCc1ccc(C(=O)OC(C)(C)C)cc1 [Fenpyroximate]         µM                 =           39.8

====

tested on: LUHMES cells; assay: Intracellular ATP content after NeuriTox exposure; format: cell-based; conditions: Homo sapiens; NeuriTox exposure scheme, 24 h; read-out: LUHMES 24 h EC25 ATP (converted)
measured endpoint: EC25 (µM)

> print(dat)
                                   compound  measurement.target  readout.relation  readout.value
1         Cc1occc1C(=O)Nc1ccccc1 [Fenfuram]        LUHMES cells                 >            100
2  Cc1nc(C(F)(F)F)c(C(=O)Nc2c(Br)cc(OC(F)(F)F)cc2Br)s1 [Thifluzamide]        LUHMES cells                 =             20
3  COc1cc(CNC(=O)CCCC/C=C/C(C)C)ccc1O [Capsaicin]        LUHMES cells                 >           50.1
4  Cc1ccc(-c2c(Cl)nc(C#N)n2S(=O)(=O)N(C)C)cc1 [Cyazofamid]        LUHMES cells                 >           50.1
5  CCOCCc1ccc(OCCN=c2[nH]cnc(CC)c2Cl)c(C)c1C [Pyrimidifen]        LUHMES cells                 =             20
6  CC(C)Oc1cccc(NC(=O)c2ccccc2C(F)(F)F)c1 [Flutolanil]        LUHMES cells                 =           79.4
7  CCCCCC[C@H]1C(=O)O[C@H](C)[C@H](NC(=O)c2cccc(NC=O)c2O)C(=O)O[C@@H](C)[C@@H]1OC(=O)CC(C)C [Antimycin A]        LUHMES cells                 =           25.1
8  CC(C)(C)c1ccc(CSc2cnn(C(C)(C)C)c(=O)c2Cl)cc1 [Pyridaben]        LUHMES cells                 =           79.4

====

test system: LUHMES cells; experiment: NeuriTox test: neurite area and viability, 24 h; assay type: cell-based, human; details: Homo sapiens; NeuriTox exposure scheme, 24 h; read-out: LUHMES 24 h EC25 NA (neurite area) (converted)
Classify: label 1 when EC25 is strictly less than 30 µM; label 0 when EC25 is not.

> print(dat)
                                   compound  category
1           Cc1ccccc1C(=O)Nc1cccc(OC(C)C)c1   label 0
2        COc1cc(CNC(=O)CCCC/C=C/C(C)C)ccc1O   label 0
3       CC(C)(C)c1ccc(CCOc2ncnc3ccccc23)cc1   label 1
4  CCOCCc1ccc(OCCN=c2[nH]cnc(CC)c2Cl)c(C)c1C   label 1
5                    Cc1occc1C(=O)Nc1ccccc1   label 0
6  CCCCCC[C@H]1C(=O)O[C@H](C)[C@H](NC(=O)c2cccc(NC=O)c2O)C(=O)O[C@@H](C)[C@@H]1OC(=O)CC(C)C [Antimycin A]   label 1
7  COC(=O)N(OC)c1ccccc1COc1ccn(-c2ccc(Cl)cc2)n1   label 1
8  Cc1ccc(-c2c(Cl)nc(C#N)n2S(=O)(=O)N(C)C)cc1   label 0
9  CCc1nn(C)c(C(=O)NCc2ccc(C(C)(C)C)cc2)c1Cl   label 1

====

System: LUHMES cells
Assay: NeuriTox test: neurite area and viability, 24 h
Assay type: cell-based, human
Settings: Homo sapiens; NeuriTox exposure scheme, 24 h; read-out: LUHMES 24 h EC25 V (viability) (converted)
Protocol: The NeuriTox test was performed as previously described (Delp et al. [2018b]; Krug et al. [2013a]; Stiegler et al. [2011]). […] Subsequently, multiple endpoints were determined, e.g., neurite outgrowth (i.e., NeuriTox test), resazurin reduction, intracellular ATP content, gene expression levels from TempO-Seq analysis, and proteasomal activity. […] Endpoints were determined on d10 of differentiation. […]
EC25 values by entry
measured endpoint: EC25 (µM)

> print(dat)
                                    compound  measured.endpoint  unit.info  readout.relation  readout.value
 1  CC(C)(C)c1ccc(CSc2cnn(C(C)(C)C)c(=O)c2Cl)cc1               EC25         µM                 >            100
 2                    Cc1occc1C(=O)Nc1ccccc1               EC25         µM                 >            100
 3  Cc1ccc(-c2c(Cl)nc(C#N)n2S(=O)(=O)N(C)C)cc1               EC25         µM                 >           50.1
 4  Cc1nc(C(F)(F)F)c(C(=O)Nc2c(Br)cc(OC(F)(F)F)cc2Br)s1 [Thifluzamide]               EC25         µM                 =           63.1
 5           Cc1ccccc1C(=O)Nc1cccc(OC(C)C)c1               EC25         µM                 >            100
 6  CCCCCC[C@H]1C(=O)O[C@H](C)[C@H](NC(=O)c2cccc(NC=O)c2O)C(=O)O[C@@H](C)[C@@H]1OC(=O)CC(C)C [Antimycin A]               EC25         µM                 >           50.1
 7    CC(C)Oc1cccc(NC(=O)c2ccccc2C(F)(F)F)c1               EC25         µM                 >            100
 8  CCOCCc1ccc(OCCN=c2[nH]cnc(CC)c2Cl)c(C)c1C               EC25         µM                 =           39.8
 9       CO/N=C(/C(=O)OC)c1ccccc1COc1ccccc1C               EC25         µM                 =           39.8
10       CC(C)(C)c1ccc(CCOc2ncnc3ccccc23)cc1               EC25         µM                 =           15.8
